# TESTED_SYSTEM: cGMP-dependent 3',5'-cyclic phosphodiesterase (Homo sapiens)
# Sequence (O00408 whole entry): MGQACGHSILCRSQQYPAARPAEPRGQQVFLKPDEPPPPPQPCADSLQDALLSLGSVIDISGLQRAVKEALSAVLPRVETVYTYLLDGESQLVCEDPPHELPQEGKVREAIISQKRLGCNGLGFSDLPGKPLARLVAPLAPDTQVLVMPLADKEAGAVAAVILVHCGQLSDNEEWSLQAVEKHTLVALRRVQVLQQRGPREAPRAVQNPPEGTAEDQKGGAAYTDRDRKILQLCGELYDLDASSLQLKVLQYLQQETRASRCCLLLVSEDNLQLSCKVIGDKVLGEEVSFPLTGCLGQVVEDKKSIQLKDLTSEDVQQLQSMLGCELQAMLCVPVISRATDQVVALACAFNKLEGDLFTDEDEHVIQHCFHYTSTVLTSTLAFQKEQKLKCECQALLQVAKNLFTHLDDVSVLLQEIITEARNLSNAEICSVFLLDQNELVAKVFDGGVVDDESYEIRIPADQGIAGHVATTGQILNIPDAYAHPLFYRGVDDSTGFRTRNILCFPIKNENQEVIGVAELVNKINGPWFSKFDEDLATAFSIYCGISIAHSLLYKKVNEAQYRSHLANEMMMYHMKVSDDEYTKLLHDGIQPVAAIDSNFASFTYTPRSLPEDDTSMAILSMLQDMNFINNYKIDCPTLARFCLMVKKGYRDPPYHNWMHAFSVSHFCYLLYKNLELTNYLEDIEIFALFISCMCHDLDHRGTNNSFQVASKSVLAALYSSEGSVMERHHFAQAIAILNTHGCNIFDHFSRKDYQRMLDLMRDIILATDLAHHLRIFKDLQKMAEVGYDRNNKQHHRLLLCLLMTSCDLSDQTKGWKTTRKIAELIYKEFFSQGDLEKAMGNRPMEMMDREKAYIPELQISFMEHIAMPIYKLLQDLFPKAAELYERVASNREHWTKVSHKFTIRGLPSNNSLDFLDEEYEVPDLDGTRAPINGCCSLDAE
# ASSAY_TEXT: Inhibition of human recombinant PDE2A
pIC50: −log10 of the molar value.
READOUT_TYPE: pIC50

O=C(Nc1ccc(N2CCOCC2)cc1)c1cn(Cc2c(F)cccc2Cl)c2ccc(=O)[nH]c2c1=O :: < 6.00

In the following, a different molecule is considered.
INPUT: Quick one: give measured pIC50 for CCN(CC)c1ccc(NC(=O)c2cn(Cc3c(F)cccc3Cl)c3ccc(=O)[nH]c3c2=O)cc1
OUTPUT: < 5.30

###

# TESTED_SYSTEM: High affinity 3',5'-cyclic-AMP phosphodiesterase 7A (Homo sapiens)
# Sequence (Q13946 whole entry): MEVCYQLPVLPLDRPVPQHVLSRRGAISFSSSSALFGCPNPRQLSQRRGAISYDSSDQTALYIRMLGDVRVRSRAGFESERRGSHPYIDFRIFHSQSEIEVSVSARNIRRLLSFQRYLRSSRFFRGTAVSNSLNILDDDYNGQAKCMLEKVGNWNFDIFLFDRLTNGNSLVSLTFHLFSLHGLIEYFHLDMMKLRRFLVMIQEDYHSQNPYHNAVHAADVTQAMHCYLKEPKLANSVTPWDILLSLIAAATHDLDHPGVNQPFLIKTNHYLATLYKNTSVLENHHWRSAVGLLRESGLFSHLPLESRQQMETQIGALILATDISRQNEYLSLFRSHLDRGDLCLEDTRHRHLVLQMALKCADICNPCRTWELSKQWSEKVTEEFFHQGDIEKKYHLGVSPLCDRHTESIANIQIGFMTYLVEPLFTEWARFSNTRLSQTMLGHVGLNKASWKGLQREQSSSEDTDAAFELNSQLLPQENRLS
# ASSAY_TEXT: Inhibition of human recombinant PDE7A1 expressed in baculovirus infected insect Sf21 cells after 30 mins by scintillation proximity assay
pIC50: −log10 of the molar value.
READOUT_TYPE: pIC50

N#Cc1cccc(NC(=O)c2cn(Cc3c(F)cccc3F)c3ccc(=O)[nH]c3c2=O)c1 :: 5.97
O=C(Nc1ccc(N2CCOCC2)cc1)c1cn(Cc2ccccc2)c2ccc(=O)[nH]c2c1=O :: 6.15
O=C(Nc1ccc(N2CCOCC2)cc1)c1cn(Cc2ccccc2Cl)c2ccc(=O)[nH]c2c1=O :: 6.12
CC(=O)c1ccc(NC(=O)c2cn(Cc3c(F)cccc3Cl)c3ccc(=O)[nH]c3c2=O)cc1 :: 7.74
N#Cc1ccc(NC(=O)c2cn(Cc3c(F)cccc3F)c3ccc(=O)[nH]c3c2=O)cc1 :: 7.02

A. O=C(Nc1ccc(OC(F)F)cc1)c1cn(Cc2c(F)cccc2F)c2ccc(=O)[nH]c2c1=O
B. COc1ccc(NC(=O)c2cn(Cc3c(F)cccc3Cl)c3ccc(=O)[nH]c3c2=O)cc1Cl
INPUT: Quick check, higher pIC50 between A and B ? Reply briefly: the label of your chosen item.
OUTPUT: B
(B: 7.47, A: 7.15)
